- Tested System: Bombyx mori EcR (VP16 fusion, CVBE switch construct) (Bombyx mori)
- Sequence (P49881 86-606): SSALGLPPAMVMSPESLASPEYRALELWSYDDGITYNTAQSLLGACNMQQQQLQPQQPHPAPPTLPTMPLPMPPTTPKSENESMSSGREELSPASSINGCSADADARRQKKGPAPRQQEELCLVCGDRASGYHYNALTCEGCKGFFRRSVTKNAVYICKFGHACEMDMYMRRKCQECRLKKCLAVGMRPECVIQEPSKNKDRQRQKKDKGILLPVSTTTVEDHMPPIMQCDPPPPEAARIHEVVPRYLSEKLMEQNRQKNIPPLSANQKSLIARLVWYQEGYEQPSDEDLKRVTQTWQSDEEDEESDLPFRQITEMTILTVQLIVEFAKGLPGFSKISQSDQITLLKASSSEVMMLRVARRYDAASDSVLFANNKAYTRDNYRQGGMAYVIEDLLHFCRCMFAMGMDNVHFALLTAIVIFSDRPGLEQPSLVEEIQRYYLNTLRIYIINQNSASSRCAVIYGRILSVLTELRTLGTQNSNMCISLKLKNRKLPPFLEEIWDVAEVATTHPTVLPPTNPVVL
- Sequence (P19793 whole entry partner, the tested form may be a part): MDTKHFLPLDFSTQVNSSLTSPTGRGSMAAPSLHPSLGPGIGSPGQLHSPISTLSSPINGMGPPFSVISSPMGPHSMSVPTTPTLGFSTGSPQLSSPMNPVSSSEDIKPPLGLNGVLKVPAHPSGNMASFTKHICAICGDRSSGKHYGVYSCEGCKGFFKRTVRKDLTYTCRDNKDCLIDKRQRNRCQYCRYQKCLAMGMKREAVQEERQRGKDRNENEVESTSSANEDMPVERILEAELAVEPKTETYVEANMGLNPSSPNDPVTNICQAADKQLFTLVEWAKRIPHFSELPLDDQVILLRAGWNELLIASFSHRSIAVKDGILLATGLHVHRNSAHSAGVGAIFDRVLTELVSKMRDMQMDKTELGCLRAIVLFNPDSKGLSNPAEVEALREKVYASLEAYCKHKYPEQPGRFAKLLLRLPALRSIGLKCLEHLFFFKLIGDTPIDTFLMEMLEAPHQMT
- Assay Remarks: Z3 Assay (HEK-293 cells with CVBE and 6XEcRE LacZ, β-galactosidase reporter)
- Condition Summary: read-out: Z3 assay EC50; HEK-293 Z3 cells, β-galactosidase reporter; average of two wells
Quantity Measured: EC50 (nM)
Your answer is read as nM, so omit the unit and give the number.

Worked set:
[
  {
    "Compound": "CCc1c(OC)cccc1C(=O)NN(C(=O)c1cc(OC)c(OC)c(OC)c1)C(C)(C)C",
    "Quantity Measured": "EC50",
    "Numeric Result": 2570
  },
  {
    "Compound": "CCc1c(OC)cccc1C(=O)NN(C(=O)c1cc(C)cc(C)c1)C(CC)C(C)(C)C (stereo not shown)",
    "Quantity Measured": "EC50",
    "Numeric Result": 37
  },
  {
    "Compound": "CCCC(N(NC(=O)c1cccc(OC)c1C)C(=O)c1cc(OC)c(C)c(OC)c1)C(C)(C)C (stereo not shown)",
    "Quantity Measured": "EC50",
    "Numeric Result": 46
  }
]

Continue with the next compound.
For Bombyx mori EcR (VP16 fusion, CVBE switch construct) (Bombyx mori), provide EC50 of `CC(=O)Oc1cccc(C(=O)NN(C(=O)c2cc(C)cc(C)c2)C(C)(C)C)c1C` please. 2690
